Parameter: pIC50. Scope: all listed entries.
- assayed_system: Recombinant human His-tagged Trim24-PHD-bromodomain (Homo sapiens, UniProt O15164)
- Construct: Recombinant human His-tagged Trim24-PHD-bromodomain (produced in-house)
- Sequence (O15164 824-1006 limits assumed): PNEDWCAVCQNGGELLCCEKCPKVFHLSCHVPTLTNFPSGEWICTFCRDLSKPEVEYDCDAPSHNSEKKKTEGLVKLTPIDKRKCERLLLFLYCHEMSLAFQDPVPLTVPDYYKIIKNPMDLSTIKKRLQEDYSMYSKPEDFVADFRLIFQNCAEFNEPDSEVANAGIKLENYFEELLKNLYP
- test_name: Trim24 AlphaScreen Assay
- assay_setup: 5 nM Trim24 protein, 15 nM biotinylated H3K23ac (1-33aa) peptide
pIC50: −log10 of the molar value.
observed_property: pIC50

| compound | result |
| --- | --- |
| CCCOc1cc(C#N)cc(Oc2cc3c(cc2NS(=O)(=O)c2ccc(OC)c(OC)c2)n(C)c(=O)n3C)c1 | 7.00 to 8.00 |
| CCCOc1cccc(Oc2cc3c(cc2NS(=O)(=O)c2cc(OC)cc(OC)c2)n(C)c(=O)n3C)c1 | 6.00 to 7.00 |
| CCCOc1cc(OCCCCN)cc(Oc2cc3c(cc2NS(=O)(=O)c2cn(C)cn2)n(C)c(=O)n3C)c1 | 8.00 to 9.00 |
| CCCOc1cc(Oc2cc3c(cc2NS(=O)(=O)c2cn(C)cn2)n(C)c(=O)n3C)ccc1Cl | 6.00 to 7.00 |
| CCCOc1cc(OCCCCCCO)cc(Oc2cc3c(cc2NS(=O)(=O)c2cnn(C)c2C)n(C)c(=O)n3C)c1 | 7.00 to 8.00 |
| CCC(C)COc1cccc(Oc2cc3c(cc2NS(=O)(=O)c2cn(C)c(C)n2)n(C)c(=O)n3C)c1 (stereo not shown) | 6.00 to 7.00 |
| Cc1c(S(=O)(=O)Nc2cc3c(cc2Oc2cc(OCCCCN)cc(OCC(F)(F)F)c2)n(C)c(=O)n3C)cnn1C | 8.00 to 9.00 |

----------
Parameter: pIC50. Scope: all listed entries.
- assayed_system: Recombinant human His-tagged Trim24-PHD-bromodomain (Homo sapiens, UniProt O15164)
- Construct: Recombinant human His-tagged Trim24-PHD-bromodomain (produced in-house)
- test_name: Trim24 AlphaScreen Assay
- assay_setup: 5 nM Trim24 protein, 15 nM biotinylated H3K23ac (1-33aa) peptide
pIC50: −log10 of the molar value.
observed_property: pIC50

| compound | observed_property | result |
| --- | --- | --- |
| CCCOc1ccc(F)c(Oc2cc3c(cc2NS(=O)(=O)c2ccc(OC)c(OC)c2)n(C)c(=O)n3C)c1 [Example 134] | pIC50 | 7.00 to 8.00 |
| CCCOc1cc(OCCCCN)cc(Oc2cc3c(cc2NS(=O)(=O)c2cn(C)c(C)n2)n(C)c(=O)n3C)c1 [Example 214] | pIC50 | 7.00 to 8.00 |
| CC(C)COc1cc(F)cc(Oc2cc3c(cc2NS(=O)(=O)c2cn(C)cn2)n(C)c(=O)n3C)c1 [Example 224] | pIC50 | 7.00 to 8.00 |
| CCCOc1cc(OCCCOC)cc(Oc2cc3c(cc2NS(=O)(=O)c2cnn(C)c2)n(C)c(=O)n3C)c1 [Example 153] | pIC50 | 7.00 to 8.00 |
| Cc1nn(C)cc1S(=O)(=O)Nc1cc2c(cc1Oc1cccc(OCc3ccccc3)c1)n(C)c(=O)n2C [Example 23] | pIC50 | 6.00 to 7.00 |
| Cn1c(=O)n(C)c2cc(Oc3cccc(OCc4ccccc4)c3)c(NS(=O)(=O)c3cccnc3)cc21 [Example 14] | pIC50 | 6.00 to 7.00 |
| CCCOc1cccc(Oc2cc3c(cc2NS(=O)(=O)c2ccc(OC)c(NC(C)=O)c2)n(C)c(=O)n3C)c1 [Example 174] | pIC50 | 7.00 to 8.00 |
